# assay name: Measurement of saturated solubility
# Format: physicochemical
# assay setup: after standing at 25° C. for 192 hours
Examples of compounds with documented saturated solubility follow.

compound | saturated solubility
CC(=NC#N)N(C)Cc1ccc(Cl)nc1.CC(=NC#N)N(C)Cc1ccc(Cl)nc1.Oc1ccc(C(c2ccc(O)cc2)C(c2ccc(O)cc2)c2ccc(O)cc2)cc1 [Clathrate compound 1] | 232 ppm
CC(=NC#N)N(C)Cc1ccc(Cl)nc1.CO.Oc1ccc(C(c2ccc(O)cc2)C(c2ccc(O)cc2)c2ccc(O)cc2)cc1 [Clathrate compound 2] | 238 ppm
CC(=NC#N)N(C)Cc1ccc(Cl)nc1.CCO.Oc1ccc(C(c2ccc(O)cc2)C(c2ccc(O)cc2)c2ccc(O)cc2)cc1 [Clathrate compound 3] | 230 ppm

Request: // lookup saturated solubility for C/C(=N\C#N)N(C)Cc1ccc(Cl)nc1 [Acetamiprid, reference compound]
Result: 3807 ppm
